Field: growth. Provide a value for each of the compounds that follow.
System: HS 578T breast
test_protocol: NCI-60 one-dose screen, 48 h (100 = growth as untreated, 0 = no growth, -100 = all killed)
conditions: 10 µM unless noted
About 83,000 compounds went through this panel and 20% of them were active in at least one assay; those are over-represented in the sample as a whole. The source made the active and inactive calls. Rule for the calls: active = growth percent below 10; inactive = the rest.

Request: Data request, read-out growth, for OCCOCCN(Cc1ccccn1)Cc1cc(I)cc(I)c1O
Response: 109% (inactive)

Request: Reported growth, compound N#C/C(=C\c1ccc(-c2ccc(Cl)cc2)o1)C(=O)Nc1ncc(Cc2ccc(Cl)cc2)s1 : ____
Response: 25.6% (inactive)

Request: I have this compound here, COc1ccc(-c2nnc3n(C)c(=O)c4ccccc4n23)cc1N , and I need its recorded growth.
Response: 32% (inactive)

Request: Any idea what growth was measured for COC(=O)[C@H]1CCCN1C[C@@H](O)CN1C(=O)/C(=C\c2cc(OC)c(OC)c(OC)c2)c2ccccc21 ?
Response: 99.6% (inactive)

###

Test system: U251 CNS
test_protocol: NCI-60 one-dose screen, 48 h (100 = growth as untreated, 0 = no growth, -100 = all killed)
conditions: 10 µM unless noted
About 83,000 compounds went through this panel and 20% of them were active in at least one assay; those are over-represented in the sample as a whole. Calls of active or inactive are those of the source. How the source made its calls: active means growth percent below 10; inactive means the rest.
Give growth for every item shown.

Request: Which growth is reported with U251 CNS for this entry: C=CCn1cc(-c2nc3ccccc3s2)c2cc(-c3ccc4c5c(cccc35)C(=O)N(N)C4=O)ccc21 ?
Response: 104% (inactive)

Request: Form entry - test system: U251 CNS; read-out: growth; compound: CC(C)CCNC(=O)Cn1cccc(NC(=O)OCc2ccccc2)c1=O
Response: 101% (inactive)

Request: Form field - read-out: growth; system: U251 CNS; submitted item: CCN1CCN(c2cc(C(=O)Nc3nc(-c4cc(OC)c(OC)c(OC)c4)cs3)cc(C(F)(F)F)c2)CC1
Response: 60.9% (inactive)

Request: Entry O=c1oc2ccc([N+](=O)[O-])cc2cc1Br , system U251 CNS: what growth was measured?
Response: 101% (inactive)

Request: Provide the documented growth with U251 CNS as the system for O=C1c2cccc3cccc(c23)C(=O)N1N1C(=O)c2cccc3c(N4CCOCC4)ccc(c23)C1=O
Response: 90.7% (inactive)

###

Tested on: RXF 393 renal
test_protocol: NCI-60 one-dose screen, 48 h (100 = growth as untreated, 0 = no growth, -100 = all killed)
conditions: 10 µM unless noted
This is part of a sample that, as a whole, favours compounds with a hit. Of some 83,000 tested, about 20% had one in any assay.
Class (required): determined from growth; valid ranges are low band = under 20%, middle band = from 20% up to 60%, high band = 60% and over

Request: GET /class?item= N#C/C(=C/c1ccc([N+](=O)[O-])cc1)n1nnc2cc(F)c(F)cc21
Response: high band

Request: Class (by measured growth) for CC1=C(CCC(C)N(C)Cc2ccc(OCCCN3CCCC3)cc2)C(C)(C)CCC1 (stereo unspecified)
Response: low band

Request: Class? Entry: C[C@]12C=CC(=O)C=C1CCC1C2[C@@H](O)C[C@@]2(C)C1CC[C@]2(O)C(=O)COC(=O)CCC(=O)O (stereo partly specified)
Response: high band

Request: // return the class label for C=CCc1c2c(c(OC)c3ccoc13)C(=O)/C(=C/c1ccccc1OC)O2
Response: middle band

Request: Form: Item = Cc1nn(-c2ccccc2)c(Oc2ccccn2)c1-c1nc2ccccc2s1 ; Class = ?
Response: high band

Request: Bin? COc1ccc(-c2nn(-c3ccccc3)cc2/C=C2/SC(=S)N(C)C2=O)cc1
Response: high band

Request: Class? Entry: COc1cc2oc(-c3cccc(NC(=O)c4cccc(Br)c4)c3)cc(=O)c2c(OC)c1OC
Response: middle band

Request: Lab note: which band did C#CCOc1ccc2ncnc(Nc3ccc(NC(=O)CCl)cc3)c2c1 land in?
Response: low band

Request: State the band of Cc1nc2sc(C(=O)Nc3cccc(Cl)c3C)c(N)c2cc1C(=O)c1ccccc1
Response: low band

Request: Form field 'band' for COc1ccc(-c2nnc(-c3ccc4c(c3)nc(-c3ccncc3)n4C3CCCCC3)o2)cc1
Response: high band

Request: Looking at Cc1ccc(CNc2ccc(Cl)cc2NCc2ccc(C)c(O)c2)cc1O , which class would you pick?
Response: middle band

Request: Which class holds S=C1CCSC(=S)N1CCCN1C(=S)CCSC1=S ?
Response: middle band

Request: Note: place this compound into its band. Item: O=C(CSc1nc2sc3c(c2c(=O)n1-c1ccccc1)CCCCC3)N/N=C/c1ccc(F)cc1
Response: low band

Request: Category of CCS/C(Nc1ccccc1)=C(\C#N)C(=O)N/N=C/c1ccc(Cl)cc1Cl :
Response: low band

Request: Form field 'band' for Cc1ccc2c(n1)C(=O)c1[nH]c3ccccc3c1C2=O
Response: high band

Request: In plain terms, what class is CCOC(=O)c1cc(-c2ccc([N+](=O)[O-])cc2)n(-c2ccc(C(=O)O)c(O)c2)c1C ?
Response: middle band
